Data credit: the supplement of paper PMC10567573

B1: KRT71 (parent)
chain: ELRNVQDVVEDYKKRYEEEINKRT

- Variants of: B1
- Test Description: protein stability index of a GFP-peptide fusion (GPS, HEK-293T) (PSI 1-6); higher = more stable;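 note: lentivirally expressed fusions sorted by FACS into six bins by GFP to DsRed ratio, PSI derived from sequencing read proportions per bin multiplied by bin number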
- Applied Conditions: c terminus: a fixed tail appended
Quantity Kind: protein stability index
Please state the value as a number alone, without comment.

Ask: Could you tell me which protein stability index is on file for ELRNVQDVVEDYKKRYCEEINKRT [E17C] ?
Result: 3.24

Ask: Given the entry ELRNVQDVVEDHKKRYEEEINKRT [Y12H] , report its measured protein stability index.
Result: 4.09

Ask: Param item = ELRNSQDVVEDYKKRYEEEINKRT [V5S] ; retrieve measured protein stability index.
Result: 4.01

Ask: Form field: reported protein stability index of ELRNVQDVVEDYKKRYEEEINIRT [K22I]
Result: 3.28

Ask: Field request: protein stability index | item: ELRNVQDVVPDYKKRYEEEINKRT [E10P]
Result: 3.41

Ask: Give its protein stability index value. Item: ELRNVQDVVEDYKKRYEENINKRT [E19N]
Result: 2.71

Ask: Report protein stability index for ELRNVQDVVEDYKKRYEPEINKRT [E18P] please.
Result: 3.98

Ask: Which protein stability index value is on record for ELRNVADVVEDYKKRYEEEINKRT [Q6A] ?
Result: 3.85

Ask: Recorded protein stability index of ELRNVQDVVEDYKKYYEEEINKRT [R15Y] , please.
Result: 3.43

Ask: Would you mind telling me what protein stability index value was observed for ELRNVQDVVEDYKKRYMEEINKRT [E17M] ?
Result: 3.02

Ask: # query: protein stability index of entry ELRNVQDVVEDYKKRYEEEIGKRT [N21G]
Result: 3.77

Ask: Given the entry ELRNVQDVVEDYKKRYEDEINKRT [E18D] , report its measured protein stability index.
Result: 3.48

Ask: Report protein stability index for ELRNVQDVVEDYKKRYEFEINKRT [E18F] please.
Result: 3.42

Ask: // query protein stability index value for entry ELRNVQDVVEDYKKRYEEEINKFT [R23F]
Result: 3.71

Ask: So what's the measured protein stability index for this one? ELRNVQDVVEDYKKRYEEEINMRT [K22M]
Result: 3.92

Ask: Returns the measured protein stability index for the input variant. Input: ELWNVQDVVEDYKKRYEEEINKRT [R3W]
Result: 3.47

Ask: GET /values?readout=protein stability index&item= ELRNVQDVVFDYKKRYEEEINKRT [E10F]
Result: 4.36

Ask: Please give the measured protein stability index for this variant: ELRGVQDVVEDYKKRYEEEINKRT [N4G]
Result: 3.65

Ask: Give the measured protein stability index of ELRNVQDVVEDYKKRYEEEIYKRT [N21Y] .
Result: 3.65

Ask: Look at this variant and give its reported protein stability index. ELRNVQYVVEDYKKRYEEEINKRT [D7Y]
Result: 3.06

Ask: Which measured protein stability index value corresponds to ELRNVQDVVEDYKKTYEEEINKRT [R15T] ?
Result: 4.68

Ask: Would you kindly share the measured protein stability index for ELRNVQDVEEDYKKRYEEEINKRT [V9E] ?
Result: 4.64
